Target: Trace amine-associated receptor 1 (Homo sapiens)
Experiment: activators of TAAR1 calcium mobilization – Fluo-8 calcium fluorescence, CHO RD-HGA16 cells, primary screen (AID 624467)
Conditions: CHO RD-HGA16 TAAR1, Fluo-8 calcium fluorescence; at 3 µM; stronger effect = higher value; vehicle wells 0%, saturating PEA agonist 100%
Screen size: about 360,000 compounds; about 3,600 (1%) were called active. Only a selection was taken, and actives are over-represented in it overall.
Kindly state activation for each of the entries shown.
Numeric answer only, unit % assumed.

Data request: Quick check: activation of COc1ccccc1CNC(=O)c1ccc(CS(=O)(=O)c2ccccc2)o1 ?
Data returned: 11.9

Data request: Next molecule: Cc1ccccc1S(=O)(=O)Cc1ccc(C(=O)NCCN2CCCCC2C)o1 (stereo unspecified)
Data returned: 8.73

Data request: Can you handle CN(O)C(=S)c1ccccc1 next?
Data returned: 4.65

Data request: Next: Cc1cc(OC(=O)NCCc2ccc(F)cc2)ccc1F
Data returned: 3.75

Data request: Then CCc1ccccc1S(=O)(=O)Cc1ccc(C(=O)NCCc2ccccc2)o1 ?
Data returned: 50.3

Data request: Then what about the molecule C=CCNC(=O)c1sc(SC)cc1-c1ccc(Cl)cc1 ?
Data returned: 4.3
